- assay_target: wild-type (WT) TeSADH (Thermoanaerobacter brockii, UniProt P14941, A186D)
- Construct: made in house; the wild-type adhB gene sat in plasmid pADHBIM1-kan
- Sequence (P14941 whole entry A186D): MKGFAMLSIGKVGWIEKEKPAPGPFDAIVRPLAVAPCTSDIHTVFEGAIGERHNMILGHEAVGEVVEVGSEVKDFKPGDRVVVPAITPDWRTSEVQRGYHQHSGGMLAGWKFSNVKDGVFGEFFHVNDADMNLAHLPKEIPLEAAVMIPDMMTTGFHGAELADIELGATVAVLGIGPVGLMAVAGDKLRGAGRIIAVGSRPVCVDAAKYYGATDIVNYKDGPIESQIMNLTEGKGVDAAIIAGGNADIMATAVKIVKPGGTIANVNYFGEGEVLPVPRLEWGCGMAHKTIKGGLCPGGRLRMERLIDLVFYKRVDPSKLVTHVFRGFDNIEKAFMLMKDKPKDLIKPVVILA
- Assay type: biochemical, Thermoanaerobacter ethanolicus
- particulars: substrate 7.5 mM; 60° C., 1 min, 50 mM Tris-HCl pH~6.5 (ketones) or pH~8.0 (alcohols), 0.4 mM NADP(H)
recorded_metric: Specific activity, WT

# input compound: CC(O)CCc1ccccc1 (racemic) [(rac)-4-Phenyl-2-butanol] ; wanted: its Specific activity, WT 0.29 U(umol)/mg protein

Look up Specific activity, WT: CCC(C)O (centres unmarked) [2-Butanol] 45.27 U(umol)/mg protein

Field request: Specific activity, WT | item: CC(=O)c1ccccc1 [Acetophenone] 0.90 U(umol)/mg protein

Name the reported Specific activity, WT value associated with the compound CC(=O)CCc1ccccc1 [1a, 4-Phenyl-2-butanone] 5.94 U(umol)/mg protein

So what's the measured Specific activity, WT for this one? CC(=O)Cc1ccccc1 [7a, 1-phenyl-2-propanone] 1.02 U(umol)/mg protein

The values you see were collected from patent US7750135B2.
